B1: POU domain, class 2, transcription factor 1, residues 285 to 354; numbered along this chain, P14859 (parent)
chain: LEELEQFAKTFKQRRIKLGFTQGDVGLAMGKLYGNDFSQTTISRFEALNLSFKNMCKLKPLLEKWLNDAE

Variants of: B1
protocol summary: abundance fitness (aPCA) (normalised: wild type 0, dead -1); higher = more abundant; growth selection in yeast, the domain comes from the species named
measurement setup: Homo sapiens
recorded endpoint: abundance fitness
Response field accepts a number only; no unit should be typed.

Solved cases below.
sequence_variant=A8C recorded_endpoint="abundance fitness" endpoint_value=-0.05
sequence_variant=K53G recorded_endpoint="abundance fitness" endpoint_value=-0.017
sequence_variant=T10F recorded_endpoint="abundance fitness" endpoint_value=0.023
sequence_variant=Q13F recorded_endpoint="abundance fitness" endpoint_value=-0.054
sequence_variant=E2M recorded_endpoint="abundance fitness" endpoint_value=-0.012

The record that follows has no abundance fitness shown yet.
[ask] Param item = I16M ; retrieve measured abundance fitness.
[reply] 0.004
